- Protocol Summary: Binding affinity for Cyclin-dependent kinase 4-cyclin E
Endpoint Label: IC50 (nM)
Your answer is read as nM, so omit the unit and give the number.

Worked examples, 10 compounds total:
[in] # input compound: CN1CCN(C(=O)c2ccc(-c3[nH]nc4c3C(=O)c3c(NC(=O)NN5CCOCC5)cccc3-4)s2)CC1 ; wanted: its IC50
[out] 32

[in] # input compound: Cc1nc(C)c(-c2n[nH]c3c2C(=O)c2c(NC(=O)NN(C)C)cccc2-3)s1 ; wanted: its IC50
[out] 4

[in] # input compound: O=C(Nc1cccc2c1C(=O)c1c(-c3ccc(C(=O)NCCN4CCCC4)s3)n[nH]c1-2)NN1CCOCC1 ; wanted: its IC50
[out] 25

[in] # input compound: CN(C)NC(=O)Nc1cccc2c1C(=O)c1c(-c3csc(Cl)c3)n[nH]c1-2 ; wanted: its IC50
[out] 7

[in] # input compound: Cc1nc(C)c(-c2[nH]nc3c2C(=O)c2c(NC(=O)NN4CCOCC4)cccc2-3)s1 ; wanted: its IC50
[out] 9

[in] # input compound: CCOC(=O)c1ccc(-c2[nH]nc3c2C(=O)c2c(NC(=O)NN4CCN(C)CC4)cccc2-3)s1 ; wanted: its IC50
[out] 36

[in] # input compound: CCOC(=O)c1ccc(-c2[nH]nc3c2C(=O)c2c(NC(=O)NN4CCOCC4)cccc2-3)s1 ; wanted: its IC50
[out] 31

[in] # input compound: O=C(Nc1cccc2c1C(=O)c1c(-c3ccc(C(=O)N4CCCNCC4)s3)n[nH]c1-2)NN1CCOCC1 ; wanted: its IC50
[out] 6

[in] # input compound: O=C(Nc1cccc2c1C(=O)c1c(-c3ccc(C(=O)N4CCCCC4)s3)n[nH]c1-2)NN1CCOCC1 ; wanted: its IC50
[out] 25

[in] # input compound: CN(C)CCNC(=O)c1ccc(-c2[nH]nc3c2C(=O)c2c(NC(=O)NN4CCOCC4)cccc2-3)s1 ; wanted: its IC50
[out] 21

Others:
[in] # input compound: CCN1CCN(C(=O)c2ccc(-c3[nH]nc4c3C(=O)c3c(NC(=O)NN5CCOCC5)cccc3-4)s2)CC1 ; wanted: its IC50
[out] 19

[in] # input compound: CN(C)C1CCN(C(=O)c2ccc(-c3[nH]nc4c3C(=O)c3c(NC(=O)NN5CCOCC5)cccc3-4)s2)CC1 ; wanted: its IC50
[out] 23

* * *

- Test system: B16
- Protocol Summary: Inhibition of B16-F1 cell proliferation
- Assay type: functional, cell-based
- Test Context: Mus musculus
Endpoint Label: IC50 (nM)
Your answer is read as nM, so omit the unit and give the number.

[in] # input molecule: Cc1nc(C)c(-c2[nH]nc3c2C(=O)c2c(NC(=O)NN4CCN(C)CC4)cccc2-3)s1 ; wanted: its IC50
[out] 160

* * *

- Tested on: NCI-H358
- Protocol Summary: Inhibition of NCI-H358 cell proliferation
- Format: functional, cell-based
- Test Context: Homo sapiens
Endpoint Label: pIC50
Answer as the number alone; pIC50 is minus log10 of concentration in mol/L.

[in] # input compound: Cc1nc(C)c(-c2[nH]nc3c2C(=O)c2c(NC(=O)NN4CCN(C)CC4)cccc2-3)s1 ; wanted: its pIC50
[out] 7.74

* * *

- Tested On: Cyclin-dependent kinase 1/cyclin B (Homo sapiens, UniProt P06493)
- Protocol Summary: Inhibition of cyclin-dependent kinase 1-cyclin B
Endpoint Label: pIC50
Answer as the number alone; pIC50 is minus log10 of concentration in mol/L.

[in] Any idea what pIC50 came out for Cc1nc(C)c(-c2[nH]nc3c2C(=O)c2c(NC(=O)NN4CCN(C)CC4)cccc2-3)s1 on Cyclin-dependent kinase 1/cyclin B (Homo sapiens, UniProt P06493)?
[out] 8.22

The origin of these recorded values is ChEMBL document CHEMBL1146824.
